pIC50 values, listed per item
- Tested on: phospho-ERK in MIA PaCa2 or H358 cells
- assay info: Phospho-ERK assay (AlphaLisa)
- Assay type: cell-based
- particulars: 1.5 h, MIA PaCa2 or H358 cells, compound incubated 1.5 hours; read-out: IC50 (p-ERK)
pIC50: −log10 of the molar value.

Examples with their reported pIC50 follow.
COc1ccc(C)cc1Cn1cnc2ccc(Sc3cnc(N4CCC5(CC4)CO[C@@H](C)[C@H]5N)cn3)c(Cl)c2c1=O; > 7.35
C[C@@H]1OCC2(CCN(c3cnc(Sc4cccc(S(=O)(=O)NCc5ccccc5)c4Cl)cn3)CC2)[C@@H]1N; > 7.35
COCCOc1nc2ccc(Sc3cnc(N4CCC5(CC4)CO[C@@H](C)[C@H]5N)cn3)c(Cl)c2[nH]1; > 7.35
C[C@@H]1OCC2(CCN(c3cnc(Sc4ccc5ncn(CCCN(C)C)c(=O)c5c4Cl)cn3)CC2)[C@@H]1N; 5.82 to 7.35
Cn1cc2c(Cl)c(Sc3cnc(N4CCC(C)(N)CC4)cn3)ccc2n1; 5.82 to 7.35
COCCn1cnc2ccc(Sc3cnc(N4CCC5(CC4)Cc4ncccc4[C@H]5N)cn3)c(Cl)c2c1=O; 5.82 to 7.35

From here, focus on the item given below.
Short answer please: pIC50, phospho-ERK in MIA PaCa2 or H358 cells, entry COc1cccc(Cn2cnc3ccc(Sc4cnc(N5CCC6(CC5)CO[C@@H](C)[C@H]6N)cn4)c(Cl)c3c2=O)c1
> 7.35
